// reported Factor VIIIa Decay relative to the WT value, Factor IXa absent per item
target_under_test: T1, factor VIIIa A1/A3C1C2 dimer, wild type (human, UniProt P00451 20-391; P00451 1709-2351)
T1 sequence 1: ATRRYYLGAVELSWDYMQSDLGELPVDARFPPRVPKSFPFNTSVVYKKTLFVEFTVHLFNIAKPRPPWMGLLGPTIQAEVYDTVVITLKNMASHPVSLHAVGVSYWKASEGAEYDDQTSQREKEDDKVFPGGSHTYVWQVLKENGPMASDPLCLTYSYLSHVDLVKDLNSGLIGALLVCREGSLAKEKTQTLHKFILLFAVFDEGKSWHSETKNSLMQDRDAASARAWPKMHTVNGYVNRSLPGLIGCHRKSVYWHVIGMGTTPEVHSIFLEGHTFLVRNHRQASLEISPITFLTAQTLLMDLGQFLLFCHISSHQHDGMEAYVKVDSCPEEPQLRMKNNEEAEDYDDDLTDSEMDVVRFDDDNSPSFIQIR
T1 sequence 2: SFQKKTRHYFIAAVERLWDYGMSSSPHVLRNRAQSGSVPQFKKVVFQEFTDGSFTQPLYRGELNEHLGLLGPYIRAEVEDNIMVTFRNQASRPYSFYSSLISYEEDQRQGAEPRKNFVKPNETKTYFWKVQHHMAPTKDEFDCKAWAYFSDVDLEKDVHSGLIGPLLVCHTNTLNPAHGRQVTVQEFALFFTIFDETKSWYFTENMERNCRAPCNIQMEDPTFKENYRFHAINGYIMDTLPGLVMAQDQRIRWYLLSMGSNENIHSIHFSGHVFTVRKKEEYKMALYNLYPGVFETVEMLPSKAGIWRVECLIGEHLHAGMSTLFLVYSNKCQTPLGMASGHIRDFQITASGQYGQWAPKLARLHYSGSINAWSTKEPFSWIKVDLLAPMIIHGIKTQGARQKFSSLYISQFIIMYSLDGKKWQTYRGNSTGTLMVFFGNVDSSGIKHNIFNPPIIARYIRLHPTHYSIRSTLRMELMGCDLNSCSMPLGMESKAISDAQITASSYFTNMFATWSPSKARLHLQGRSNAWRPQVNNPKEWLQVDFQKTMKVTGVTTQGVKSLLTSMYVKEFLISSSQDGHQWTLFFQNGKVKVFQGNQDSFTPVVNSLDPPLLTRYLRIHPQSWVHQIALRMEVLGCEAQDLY
test_method_notes: cell-based or functional assay

Identify measured Factor VIIIa Decay relative to the WT value, Factor IXa absent corresponding to factor VIIIa A2 subunit, Glu665Ala (other) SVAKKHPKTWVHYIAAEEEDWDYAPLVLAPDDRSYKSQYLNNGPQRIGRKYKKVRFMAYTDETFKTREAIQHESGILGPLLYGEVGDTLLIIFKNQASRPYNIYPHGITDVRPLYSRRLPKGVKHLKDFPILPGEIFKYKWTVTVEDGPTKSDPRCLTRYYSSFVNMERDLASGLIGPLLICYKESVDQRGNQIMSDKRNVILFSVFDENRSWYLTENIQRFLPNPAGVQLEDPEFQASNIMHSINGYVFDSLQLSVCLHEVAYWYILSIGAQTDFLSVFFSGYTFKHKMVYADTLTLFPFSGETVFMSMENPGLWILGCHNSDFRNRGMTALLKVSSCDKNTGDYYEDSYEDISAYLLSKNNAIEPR 0.62 relative to WT

Identify measured Factor VIIIa Decay relative to the WT value, Factor IXa absent corresponding to factor VIIIa A2 subunit, Glu665Val (other) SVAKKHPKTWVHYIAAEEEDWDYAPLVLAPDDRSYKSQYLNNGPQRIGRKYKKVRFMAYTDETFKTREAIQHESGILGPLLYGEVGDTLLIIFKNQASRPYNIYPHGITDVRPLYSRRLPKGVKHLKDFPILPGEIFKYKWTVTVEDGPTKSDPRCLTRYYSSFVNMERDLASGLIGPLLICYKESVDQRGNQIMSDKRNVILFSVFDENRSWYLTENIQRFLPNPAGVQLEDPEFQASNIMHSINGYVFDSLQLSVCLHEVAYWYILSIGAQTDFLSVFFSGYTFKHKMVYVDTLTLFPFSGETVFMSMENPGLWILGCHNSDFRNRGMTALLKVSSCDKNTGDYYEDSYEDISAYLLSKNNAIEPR 0.19 relative to WT
